# ASSAYED_TARGET: TGF-beta receptor type-1 (Homo sapiens) (UniProt P36897)
# Sequence (P36897 whole entry): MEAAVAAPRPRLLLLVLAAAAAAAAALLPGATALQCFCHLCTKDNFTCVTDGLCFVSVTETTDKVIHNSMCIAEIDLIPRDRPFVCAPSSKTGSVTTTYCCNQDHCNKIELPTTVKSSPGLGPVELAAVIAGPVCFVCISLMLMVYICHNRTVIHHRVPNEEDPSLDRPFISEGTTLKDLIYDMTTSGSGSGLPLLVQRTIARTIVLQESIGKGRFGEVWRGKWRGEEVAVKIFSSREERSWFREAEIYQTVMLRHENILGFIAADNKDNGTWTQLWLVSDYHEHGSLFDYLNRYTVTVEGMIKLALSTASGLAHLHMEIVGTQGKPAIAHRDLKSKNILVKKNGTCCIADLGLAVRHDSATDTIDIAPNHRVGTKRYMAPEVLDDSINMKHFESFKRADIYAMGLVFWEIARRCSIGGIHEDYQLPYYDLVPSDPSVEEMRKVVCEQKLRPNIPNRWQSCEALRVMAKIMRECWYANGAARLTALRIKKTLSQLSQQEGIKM
# METHOD: Inhibition of TGFBR1 (unknown origin) at 1 uM by radiometric assay relative to control
RECORDED_METRIC: inhibition (%)
Give just the numeric value; % need not be written.

// query So what's the measured inhibition for this one? Fc1ccc(-c2nn3c(c2-c2ccnc4[nH]ccc24)COCC3)nc1
// result 59

// query So what's the measured inhibition for this one? Cn1cc(-c2ccnc3[nH]c(C(F)(F)F)cc23)c(-c2ccc(F)cn2)n1
// result 69

// query So what's the measured inhibition for this one? CC1(C)Cn2nc(-c3ccc(F)cn3)c(-c3ccnc4[nH]ccc34)c2CO1
// result 49

// query So what's the measured inhibition for this one? Cn1cc(-c2c(C#N)cnc3[nH]ccc23)c(-c2ccc(F)cn2)n1
// result 17

// query So what's the measured inhibition for this one? Cn1cc(-c2cc(N)nc3[nH]ccc23)c(-c2ccc(F)cn2)n1
// result 8

// query So what's the measured inhibition for this one? Cn1cc(-c2ccnc3[nH]ccc23)c(-c2ccc(F)cn2)n1
// result 98

// query So what's the measured inhibition for this one? Cc1cnc2[nH]ccc2c1-c1cn(C)nc1-c1ccc(F)cn1
// result 8

* * *

Please respond with reported Cmax for every item in the list.
# METHOD: Cmax in Sprague-Dawley rat at 5 mg/kg, po measured for 24 hrs by LC-MS/MS analysis
# Assay type: ADME, organism-based
# Parameters: dose 5 mg/kg, time 24 hrs, route po
# PARTICULARS: in vivo
Give just the numeric value; nM need not be written.

// query So what's the measured Cmax for this one? Cn1cc(-c2ccnc3[nH]ncc23)c(-c2ccc(F)cc2)n1
// result 2400

// query So what's the measured Cmax for this one? CC1(C)Cn2nc(-c3ccc(F)cn3)c(-c3ccnc4[nH]ncc34)c2CO1
// result 400

// query So what's the measured Cmax for this one? [2H]C([2H])([2H])C1(C([2H])([2H])[2H])Cn2nc(-c3ccc(F)cn3)c(-c3ccnc4[nH]ncc34)c2CO1
// result 3000

// query So what's the measured Cmax for this one? Cn1cc(-c2ccnc3[nH]ccc23)c(-c2ccc(F)cn2)n1
// result 1600

* * *

# METHOD: Cmax in plasma of C57BL/6 mouse at 30 mg/kg, sc measured after 30 mins by LC/MS-MS analysis
# Type: ADME, organism-based
# Set-up: time 30 min, dose 30 mg/kg, route sc
RECORDED_METRIC: Cmax (µM)
Give just the numeric value; µM need not be written.

// query So what's the measured Cmax for this one? CC1(C)Cn2nc(-c3ccc(F)cn3)c(-c3ccnc4[nH]ncc34)c2CO1
// result 11.3

* * *

Sequence of the target: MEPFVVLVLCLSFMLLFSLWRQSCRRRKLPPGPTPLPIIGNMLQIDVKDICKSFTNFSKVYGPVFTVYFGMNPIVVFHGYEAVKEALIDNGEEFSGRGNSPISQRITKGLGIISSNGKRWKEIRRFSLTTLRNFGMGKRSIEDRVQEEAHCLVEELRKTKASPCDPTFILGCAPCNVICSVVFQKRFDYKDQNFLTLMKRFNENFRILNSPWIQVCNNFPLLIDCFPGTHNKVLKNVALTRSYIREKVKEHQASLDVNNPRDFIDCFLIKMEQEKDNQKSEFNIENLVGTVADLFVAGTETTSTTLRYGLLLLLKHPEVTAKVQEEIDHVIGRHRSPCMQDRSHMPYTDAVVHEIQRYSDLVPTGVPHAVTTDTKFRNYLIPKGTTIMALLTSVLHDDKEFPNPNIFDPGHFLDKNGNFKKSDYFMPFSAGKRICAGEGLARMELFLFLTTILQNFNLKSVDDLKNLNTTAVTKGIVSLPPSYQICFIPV
pIC50: −log10 of the molar value.
RECORDED_METRIC: pIC50

// query So what's the measured pIC50 for this one? CC1(C)Cn2nc(-c3ccc(F)cn3)c(-c3ccnc4[nH]ncc34)c2CO1
// result < 4.70

This collection of values is drawn from ChEMBL document CHEMBL5335866.
